# assay.notes: Human HepG2 cell viability assay in 384 well format
# Type: toxicity, cell-based
# Set-up: dose 125 nL, time 70.5 hour; concentration not given beside the values
# condition.context: HepG2 cells, read-out: Inhibition
Kindly supply the reported cytotoxicity at 70.5 h values for the records listed here.
Reply numerically in %, unit not repeated.

So for `CCOC(=O)NCCC(=O)NCc1ccc(Oc2ccc(F)cc2)nc1` , the logged cytotoxicity at 70.5 h turned out to be 1.62

So for `COCCCNC(=O)C(C)(C)N(C)C1CCCC1` , the logged cytotoxicity at 70.5 h turned out to be -0.184

So for `COc1ccc(CN(Cc2cc(C)no2)C2CC2)cc1` , the logged cytotoxicity at 70.5 h turned out to be 0.248

So for `Cc1cc(C)nc(N2CC[C@@]3(O)CCN(S(=O)(=O)N(C)C)C[C@H]3C2)n1` , the logged cytotoxicity at 70.5 h turned out to be 16.5

So for `Cc1ncsc1CCN(C)Cc1cc2n(n1)CCN(S(C)(=O)=O)C2` , the logged cytotoxicity at 70.5 h turned out to be -6.95

So for `CCNc1nc(-c2cccnc2)c(-c2ccnc(N3CCCC3)n2)s1` , the logged cytotoxicity at 70.5 h turned out to be -6.77

So for `O=C(CCc1ccsc1)N(Cc1ccccn1)C1CC1` , the logged cytotoxicity at 70.5 h turned out to be -2.46

So for `Cc1nc(SCC(=O)Nc2ccc(C(N)=O)cc2)c(C#N)c(C)c1C` , the logged cytotoxicity at 70.5 h turned out to be 4.83

So for COCCN1CCN(Cc2cccc(C(N)=O)c2)CC1C (stereo unspecified) , the logged cytotoxicity at 70.5 h turned out to be 71.2

So for Cc1nc2n(n1)CC(NCc1csc(-c3ccsc3)n1)CC2 (stereo unspecified) , the logged cytotoxicity at 70.5 h turned out to be -8.64

So for `O=C(CCc1cncc(F)c1)NS(=O)(=O)c1ccc(F)cc1F` , the logged cytotoxicity at 70.5 h turned out to be 8.87
